Biological target: Human MOR (Homo sapiens)
Construct: expressed in transfected cells; host or cells: HEK-293T
Sequence (P35372 whole entry): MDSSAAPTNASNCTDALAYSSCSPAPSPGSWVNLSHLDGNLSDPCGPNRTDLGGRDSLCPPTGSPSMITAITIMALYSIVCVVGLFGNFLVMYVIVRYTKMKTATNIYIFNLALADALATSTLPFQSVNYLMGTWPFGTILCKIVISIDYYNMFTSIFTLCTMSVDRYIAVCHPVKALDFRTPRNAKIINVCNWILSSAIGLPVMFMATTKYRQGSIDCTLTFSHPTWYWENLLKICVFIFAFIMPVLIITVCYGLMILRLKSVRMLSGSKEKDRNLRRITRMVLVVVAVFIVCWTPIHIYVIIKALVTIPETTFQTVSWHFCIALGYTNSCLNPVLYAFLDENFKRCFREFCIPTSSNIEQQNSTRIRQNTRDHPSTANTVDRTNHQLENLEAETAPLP
Test: cell-based
pEC50: −log10 of the molar value. Counter-ions that a name gives are not always drawn.
QUANTITY: pEC50

So for COCCCNC1c2ccc(Br)cc2S(=O)(=O)N(C)c2ccsc21 (stereo not shown) , the logged pEC50 turned out to be > 5.00

Input COCCCNC1c2ccccc2N(C)S(=O)(=O)c2cc(Br)ccc21 (stereo not shown) . Output pEC50: 7.13

Sample CCOC(=O)CCCCCCNC1c2ccccc2N(C)S(=O)(=O)c2cc(F)ccc21 (stereo not shown) ; pEC50 observed: 5.69

Looking up CN1c2ccccc2C(NCC2CCOC2)c2ccc(Cl)cc2S1(=O)=O (stereo not shown) , I see its pEC50 listed as > 5.00

Lab book: pEC50 of CN1c2ccccc2C(NCCCCCCC(=O)O)c2ccc(Br)cc2S1(=O)=O (stereo not shown) [compound 82, hydrochloride salt] noted as 6.91

Lab note: CCOC(=O)CCCCCCNC1c2ccccc2N(CC)S(=O)(=O)c2ccccc21 (stereo not shown) gave pEC50 of > 5.00

Lab book: pEC50 of CNC1c2ccccc2N(C)S(=O)(=O)c2cc(Cl)ccc21 (stereo not shown) noted as > 5.00

Lookup result for CCOC(=O)CCCCCCNC1c2ccccc2S(=O)(=O)N(C)c2c(OC)cccc21 (stereo not shown) ; measured pEC50: > 5.00

Sure, the documented pEC50 for COCCCCNC1c2ccccc2N(C)S(=O)(=O)c2cc(Cl)ccc21 (stereo not shown) is > 5.00

Short answer for CCOC(=O)CCCCCCNC1c2ccc(Cl)cc2N(C)S(=O)(=O)c2ccccc21 (stereo not shown) : pEC50 was > 5.00

The compound identified as COCCCNC1c2ccccc2N(C)S(=O)(=O)c2cc(-c3ccccc3)ccc21 (stereo not shown) registered its pEC50 at > 5.00

Entry CCCNC1c2ccccc2N(C)S(=O)(=O)c2cc(Cl)ccc21 (stereo not shown) , pEC50 reported as > 5.00

Lab book: pEC50 of CCOC(CCCNC1c2ccccc2N(C)S(=O)(=O)c2cc(Cl)ccc21)OCC (stereo not shown) noted as > 5.00

Recorded result, COCCNC1c2ccccc2N(C)S(=O)(=O)c2cc(Cl)ccc21 (stereo not shown) , pEC50: > 5.00

Looking up CSCCCNC1c2ccccc2N(C)S(=O)(=O)c2cc(Cl)ccc21 (stereo not shown) , I see its pEC50 listed as > 5.00

So for CCCCCCCNC1c2ccccc2N(C)S(=O)(=O)c2cc(Cl)ccc21 (stereo not shown) , the logged pEC50 turned out to be > 5.00

Summary for this compound, CN1c2ccccc2C(NCCCCC(=O)O)c2ccc(Cl)cc2S1(=O)=O (stereo not shown) : pEC50 is > 5.00

Measured pEC50 of CCOCCCNC1c2ccc(Br)cc2S(=O)(=O)N(C)c2ccsc21 (stereo not shown) : > 5.00

Please fill in: pEC50 reported for CCOC(=O)CCCCNC1c2ccccc2N(C)S(=O)(=O)c2cc(Cl)ccc21 (stereo not shown) = > 5.00

* * *

Hi there, I'd appreciate the recorded EC50 for every entry that follows.
Biological target: Mouse MOR (Mus musculus)
Construct: expressed in transfected cells; host or cells: HEK-293T
Sequence (P42866 whole entry): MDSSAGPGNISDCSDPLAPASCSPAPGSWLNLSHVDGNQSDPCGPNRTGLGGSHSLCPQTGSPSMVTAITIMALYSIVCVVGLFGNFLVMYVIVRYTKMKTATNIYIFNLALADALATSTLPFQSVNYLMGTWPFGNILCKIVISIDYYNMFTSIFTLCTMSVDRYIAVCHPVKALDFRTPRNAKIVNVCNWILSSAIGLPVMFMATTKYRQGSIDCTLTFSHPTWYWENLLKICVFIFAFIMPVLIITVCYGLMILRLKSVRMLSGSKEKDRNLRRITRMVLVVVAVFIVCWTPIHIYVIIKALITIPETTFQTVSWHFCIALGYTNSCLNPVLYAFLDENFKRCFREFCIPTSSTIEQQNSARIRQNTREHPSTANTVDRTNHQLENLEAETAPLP
Assay: BRET G protein activation assay, HEK-293T cells transfected with mouse MOR
Assay type: cell-based
Where a name gives a salt, the structure may show the parent alone.

Value of EC50 reported for the molecule CCOC(=O)CCCCNC1c2ccccc2N(C)S(=O)(=O)c2cc(Cl)ccc21 (centres unmarked) is < 10 µM

Lookup result for CN1c2ccccc2C(NCCCCC(=O)O)c2ccc(Cl)cc2S1(=O)=O (centres unmarked) ; measured EC50: < 10 µM

Value of EC50 reported for the molecule CCOC(=O)CCCCCCNC1c2ccccc2N(C)S(=O)(=O)c2ccccc21 (centres unmarked) is < 10 µM

Sure, the documented EC50 for CN1c2ccccc2C(NCCCCCCC(=O)O)c2ccc(Cl)cc2S1(=O)=O (centres unmarked) [tianeptine, reference compound] is 0.641 µM

The measured EC50 associated with CN1c2ccccc2C(NCCCCCCC(=O)O)c2ccccc2S1(=O)=O (centres unmarked) [compound 80, hydrochloride salt] reads < 10 µM

Every entry's value here was drawn from patent US10183919B2.
